System: Staphylococcus aureus ATCC 29213
Assay: Antibacterial susceptibility testing, IC90 determination (STA)
Format: cell-based
Conditions: Staphylococcus aureus, ATCC29213, Staphylococcus aureus ATCC 29213, broth microdilution, resazurin; read-out: STA (361.159) IC90
reported-property: IC90 (µg/mL)

compound	measure-unit	IC90
O=C1CNCc2cc(/C=C/C(=O)N3C[C@H]4CC(c5ccccc5)=C[C@H]4C3)cnc2N1 (single isomer, unassigned)	µg/mL	0.23

P = O=C1Nc2ncc(/C=C/C(=O)N3CC4C=C(c5ccccc5)CC4C3)cc2Cn2nccc21 (stereo not shown)
Q = O=C(Nc1ccc(/C=C/C(=O)N2CC3C=C(c4ccccc4)CC3C2)cn1)c1ccccc1 (stereo not shown)
*Q* Hey, which is lower on measured IC90, P or Q ? Bench note: the answer is the label of the chosen record.
*A* Q
(Q: 0.76 µg/mL, P: 3.47 µg/mL)
